- ASSAY_INFO: self-splicing fitness, log relative to wild type (ln ratio); higher = more splicing; Tetrahymena group I intron in knt gene, E. coli kanamycin selection, DiMSum; sequences stand for … in CUCUCU…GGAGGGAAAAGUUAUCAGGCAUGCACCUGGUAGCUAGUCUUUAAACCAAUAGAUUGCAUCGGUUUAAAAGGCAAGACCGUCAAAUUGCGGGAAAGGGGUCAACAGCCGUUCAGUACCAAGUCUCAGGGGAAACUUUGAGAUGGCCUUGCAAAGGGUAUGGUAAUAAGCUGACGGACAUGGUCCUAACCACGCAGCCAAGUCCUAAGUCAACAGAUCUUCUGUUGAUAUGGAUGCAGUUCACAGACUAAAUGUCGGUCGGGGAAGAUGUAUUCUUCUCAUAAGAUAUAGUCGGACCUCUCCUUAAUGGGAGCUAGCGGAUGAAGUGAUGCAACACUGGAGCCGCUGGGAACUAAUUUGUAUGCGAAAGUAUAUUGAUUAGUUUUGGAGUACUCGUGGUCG;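 note: selection with 25 µg/mL kanamycin versus none on LB agar overnight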
- PARTICULARS: 37 °C
REPORTED_PROPERTY: self-splicing fitness (ln)
Reply: number alone, nothing else.

Reference set (6 entries):
UCGAAGCAAUAUUACGCAAG = -1.6
UCUCAGCAAUAUUACGUCUU = -2.83
UUCGAGCAAUAUUACGCGUA = -1.51
AGGGAGCAAUAUUACGUGUC = -2.69
UUGUAGCAAUAUUACGGACC = -1.46
AUGCAGCAAUAUUACGAUCU = 0.285

--- query ---
// query Look up self-splicing fitness (ln): CGGCAGCAAUAUUACGGAUC
// result -2.04

----------
Form field: self-splicing fitness (ln) (one value per entry).
- ASSAY_INFO: self-splicing fitness, log relative to wild type (ln ratio); higher = more splicing; Tetrahymena group I intron in knt gene, E. coli kanamycin selection, DiMSum; sequences stand for … in CUCUCU…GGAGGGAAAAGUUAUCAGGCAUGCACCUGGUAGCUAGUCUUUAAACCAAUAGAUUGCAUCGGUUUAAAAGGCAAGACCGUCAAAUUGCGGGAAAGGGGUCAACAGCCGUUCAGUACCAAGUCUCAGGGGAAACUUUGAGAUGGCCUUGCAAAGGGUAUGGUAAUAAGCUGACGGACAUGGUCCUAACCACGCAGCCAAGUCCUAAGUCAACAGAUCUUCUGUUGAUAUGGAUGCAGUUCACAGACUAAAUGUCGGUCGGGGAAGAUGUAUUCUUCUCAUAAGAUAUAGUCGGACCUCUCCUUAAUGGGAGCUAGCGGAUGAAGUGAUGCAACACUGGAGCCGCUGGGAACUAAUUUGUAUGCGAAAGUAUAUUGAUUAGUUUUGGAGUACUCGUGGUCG
- PARTICULARS: 30 °C
Reply: number alone, nothing else.

Reference set (5 entries):
ACUCAGCAAUAUUACGUGUC = -3.74
ACGUAGCAAUAUUACGAACC = -1.44
UGUUAGCAAUAUUACGGGAU = -1.94
AAACAGCAAUAUUACGGCGC = -1.43
GUGCAGCAAUAUUACGUGGU = -2.55

// query Look up self-splicing fitness (ln): CUAGAGCAAUAUUACGAUUG
// result -0.464

// query Next sequence: AGCCAGCAAUAUUACGGGUA
// result -1.59

// query Next sequence: GCAGAGCAAUAUUACGGGAU
// result -3.53
